Outcome measure: melting point

[[record]]
smiles_notation = "CO/C=C(\\Oc1cc(-n2ccc(OC)n2)ccc1C)C(=O)OC"
readout_value = "120 to 123 °C"


Request: melting point lookup needed for CCCCc1cnn(-c2ccc(C)c(O/C(=C\OC)C(=O)OC)c2)n1 , thanks.
Result: 68 to 70 °C

Request: # iterate: CCC(CC)c1ccn(-c2ccc(C)c(O/C(=C\OC)C(=O)OC)c2)n1
Result: 108 to 111 °C

Request: # iterate: CO/C=C(\Oc1cc(-n2ccc(C)n2)c(OC)cc1C)C(=O)OC
Result: 99 to 101 °C

Request: # iterate: CO/C=C(\Oc1cc(-n2ccc(C(F)(F)F)n2)cc(C)c1C)C(=O)OC
Result: 144 to 146 °C

====

System: Phakopsora pachyrhizi
Experiment: Phakopsora pachyrhizi/Soybean/Preventative (Soybean Rust)
Type: in vivo
Conditions: 288 h, Phakopsora pachyrhizi (Soybean rust), 20 ppm
Outcome measure: pest or weed control at 20 ppm
Note: state the figure and append the unit.

[[record]]
molecule = "CO/C=C(\\Oc1cc(-n2ncc(C(F)(F)F)n2)ccc1C)C(=O)OC [Compound F-6]"
outcome_measure = "pest or weed control at 20 ppm"
readout_value = "80%"


Request: pest or weed control at 20 ppm lookup needed for CO/C=C(\Oc1cc(-n2ccc(C(F)(F)F)n2)ccc1C)C(=O)OC [Compound E-105] , thanks.
Result: 95%

Request: # iterate: CO/C=C(\Oc1cc(-n2ccc(C(C)C)n2)ccc1C)C(=O)OC [Compound E-92]
Result: 90%

Request: # iterate: CO/C=C(\Oc1cccc(-n2cccc2)c1)C(=O)OC [Compound X-1, reference compound]
Result: 10%

====

Outcome measure: melting point

[[record]]
smiles_notation = "CO/C=C(\\Oc1cc(-n2ccc(C3=CCCCC3)n2)ccc1C)C(=O)OC"
readout_value = "108 to 110 °C"

[[record]]
smiles_notation = "C/C=C(\\C)c1ccn(-c2ccc(C)c(O/C(=C\\OC)C(=O)OC)c2)n1"
readout_value = "115 to 118 °C"

[[record]]
smiles_notation = "CCON=C(C)c1cnn(-c2ccc(C)c(O/C(=C\\OC)C(=O)OC)c2)n1"
readout_value = "113 to 116 °C"

[[record]]
smiles_notation = "CO/C=C(\\Oc1cc(-n2cc(Cl)c(C3CCCCC3)n2)ccc1C)C(=O)OC"
readout_value = "150 to 152 °C"

[[record]]
smiles_notation = "CO/C=C(\\Oc1cc(-n2ccc(C)n2)c(C)cc1C)C(=O)OC"
readout_value = "123 to 124 °C"


Request: melting point lookup needed for C=Cc1ccn(-c2ccc(C)c(O/C(=C\OC)C(=O)OC)c2)n1 , thanks.
Result: 114 to 117 °C

Request: # iterate: CO/C=C(\Oc1cc(-n2ccc(C(C)C)n2)cc(OC)c1C)C(=O)OC
Result: 90 to 92 °C

Request: # iterate: CO/C=C(\Oc1cc(-n2ccc(OC(F)F)n2)ccc1C)C(=O)OC
Result: 123 to 126 °C

====

Test system: Puccinia recondita f. sp. tritici
Assay: Puccinia recondita f. sp. tritici/Wheat/Leaf Disc Preventative (Brown Rust)
Type: in vivo
Conditions: foliar, 200 ppm, wheat leaf disc preventative, compared to untreated control, read-out: control of Puccinia recondita f. sp. tritici
List of pest or weed control at 200 ppm values.

// below: answered compounds
[[record]]
compound = "CO/C=C(\\Oc1cc(-n2ccc(C(F)F)n2)ccc1Br)C(=O)OC [Compound E-86]"
outcome_measure = "pest or weed control at 200 ppm"
readout_value = "≥ 80%"

[[record]]
compound = "CO/C=C(\\Oc1cc(-n2ccc(CSC)n2)ccc1C)C(=O)OC [Compound E-76]"
outcome_measure = "pest or weed control at 200 ppm"
readout_value = "≥ 80%"

[[record]]
compound = "CCc1ccn(-c2ccc(C)c(O/C(=C\\OC)C(=O)OC)c2)n1 [Compound E-91]"
outcome_measure = "pest or weed control at 200 ppm"
readout_value = "≥ 80%"

[[record]]
compound = "CO/C=C(\\Oc1cc(-n2cc(C3CCCC3)cn2)ccc1C)C(=O)OC [Compound E-58]"
outcome_measure = "pest or weed control at 200 ppm"
readout_value = "≥ 80%"


The record that follows has no pest or weed control at 200 ppm shown yet.
Request: pest or weed control at 200 ppm lookup needed for CCON=C(C)c1cnn(-c2ccc(C)c(O/C(=C\OC)C(=O)OC)c2)n1 [Compound F-12] , thanks.
Result: ≥ 80%
